B1: TPR 5TU (parent)
chain: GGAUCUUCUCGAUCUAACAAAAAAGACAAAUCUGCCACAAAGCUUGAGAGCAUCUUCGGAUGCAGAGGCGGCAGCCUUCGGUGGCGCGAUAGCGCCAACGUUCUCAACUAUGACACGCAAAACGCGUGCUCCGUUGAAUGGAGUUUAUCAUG

variants of: B1; test: polymerase ribozyme fitness, log enrichment relative to wild type (log ratio); higher = more active; in vitro selection for triplet polymerase activity
Variants at the floor of the assay were thinned out.
// label 0 strictly below -3 in polymerase ribozyme fitness (log ratio); label 1 otherwise

{"columns": ["alteration", "group.label"],
 "data": [
  ["A23C G42U A137U", "label 0"],
  ["A12U A16U C51A G94A U109C A113G C116A U144A", "label 0"],
  ["A26G A89U", "label 0"],
  ["C35A U146A", "label 0"],
  ["U45A C72A G86U C99U", "label 0"],
  ["U45A A64C C93A", "label 0"],
  ["U4C U144G", "label 1"],
  ["G86U C93G", "label 1"]
]}

Qu. Please indicate if the recorded polymerase ribozyme fitness (log ratio) for A17G A49C C87G C123G G141A meets or exceeds -3.
Ans. label 0

Qu. Given U33A G86A A142G , state whether its polymerase ribozyme fitness (log ratio) is at least -3.
Ans. label 0
